B1: INTS4 (parent)
chain: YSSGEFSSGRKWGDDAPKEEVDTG

Variants of: B1
MEASUREMENT DESCRIPTION: protein stability index of a GFP-peptide fusion (GPS, HEK-293T) (PSI 1-6); higher = more stable;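 note: lentivirally expressed fusions sorted by FACS into six bins by GFP to DsRed ratio, PSI derived from sequencing read proportions per bin multiplied by bin number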
MEASUREMENT CONTEXT: c terminus: a fixed tail appended
Listing of entries alongside the reported protein stability index.
REPORTED METRIC: protein stability index

1) G4Y	3.91
2) V21H	2.74
3) G13I	2.48
4) W12D	3.21
5) S7R	1.8
6) S2D	5.77
7) S2M	3.97
8) T23E	2.8
9) E19A	2.67
10) V21T	3.31
11) S8N	2.68
12) G13Y	2.81
13) E19S	2.26
14) P17N	2.87
15) S3P	4.1
16) Y1L	5.79
17) R10N	2.63
18) P17K	2.31
19) G24K	3.9
20) G24A	2.59
21) D14S	2.19
22) T23W	2.05
23) K18F	4.04
24) D22Q	2.71
25) W12G	3.11
26) F6H	4.96
27) E5A	2.75
28) V21I	2.27
29) D14E	2.32
30) R10A	2.35
31) E20W	1.97
32) W12P	2.92
33) Y1K	5.62
34) S2L	3.48
35) R10K	2.81
36) G4D	4.57
37) R10D	3.93
38) S2W	3.81
39) W12S	4.44
40) G24C	2.96
41) S3I	4.01
42) S2K	5.2
43) Y1N	5.22
44) K11V	2.39
45) E5K	2.22
46) D14L	1.98
47) G9Y	2.44
48) G9K	1.28
49) S3F	3.93
50) T23Q	2.15
51) D22M	1.63
52) W12A	3.22
53) G4R	2.22
54) G4N	4.01
55) G4A	3.56
56) D15V	1.78
57) A16K	2.19
58) V21F	2.58
59) S8D	3.79
60) W12V	3.08
61) S7A	1.91
62) K11Q	2.83
63) R10T	2.8
64) R10W	1.65
65) D14Y	2.48
66) R10E	3.65
67) S8R	2.24
68) D14H	2.73
69) S8T	2.48
70) V21L	2.28
71) S3W	2.89
72) T23Y	2.36
73) G13M	2.45
74) S7I	1.96
75) E20L	1.89
76) V21N	2.81
77) K18L	2.49
78) E19F	2.97
79) P17L	2.57
80) D22A	2.06
81) A16H	1.92
82) K18A	3.05
83) K11L	1.91
84) G13H	3.66
85) E20M	2.31
86) S2Y	4.92
87) D22L	2.27
88) E20H	2.63
89) S8M	1.6
90) D15C	2.5
91) D14G	1.22
